This collection of values is drawn from patent US20260000642A1.

# METHOD NOTES: Intrinsic clearance in liver microsomes, mouse
# Type: in vitro ADME
# DETAILS: pH 7.4, mouse liver microsomes 0.5 mg/mL, Method 1, read-out: Half-Life (T1/2) (min) Mouse
# Procedure: BET protein inhibitors with a long half-life in liver microsomes from various species are in some embodiments promising oral drug candidates. […] From stock solution of compound on 10 mM DMSO, a working solution of 0.1 mM is prepared by diluting the compound in DMSO. […] The percent compound remaining at each time point is calculated with respect to that of the 0.5 min sample. The data are analysed to calculate half-life. […]
OUTCOME MEASURE: half-life at 1 μM (min)

>>> measured("CNC(=O)c1[nH]c(C(=O)N[C@H]2CC[C@H](O)CC2)cc1O[C@@H](C)c1ccccc1 (single isomer, unassigned)")
70

---

# METHOD NOTES: Pharmacokinetics of Example 101 in Lewis rats (oral, CIA study)
# Format: in vivo, Lewis rat
# DETAILS: day 0, 10 mg/kg, mean
OUTCOME MEASURE: AUClast/D, Mean (kg·ng·h/mL/mg)

>>> measured("CNC(=O)c1[nH]c(C(=O)NC2CCC2)cc1O[C@@H](C)c1ccccc1")
751

---

Readings of PO F (%) for the listed molecules
# METHOD NOTES: Sprague-Dawley rat pharmacokinetics (IV and PO)
# Format: in vivo
# DETAILS: male Sprague-Dawley rats, PO 5 mg/kg (IV 1 mg/kg), cassette mode, Method 1
# Protocol: BET protein inhibitors with a long half-life and good oral bioavailability in in vivo DMPK parameters are promising oral drug candidates. […] Compounds were formulated in 5% DMSO, 40% PEG-400, 55% Milli-Q water at a concentration of 0.2 mg/mL for IV and at 0.5 mg/mL for PO. […] 20 μL of diluted supernatant was injected into the LC/MS/MS system for quantitative analysis and concentration of analyte determined by comparison with matrix matched standard curve. […]
OUTCOME MEASURE: PO F (%)

>>> measured("CCNC(=O)c1cc(OC(C)c2ccccc2F)c(C(=O)NC)[nH]1 (single isomer, unassigned)")
46
>>> measured("CNC(=O)c1[nH]c(C(=O)NC2CC2)cc1O[C@@H](C)c1ccccc1F")
70
>>> measured("CNC(=O)c1[nH]c(C(=O)NC2COC2)cc1OC(C)c1ccc(Cl)cc1 (single isomer, unassigned)")
15
>>> measured("CCNC(=O)c1cc(OC(C)c2ccc(Cl)cc2F)c(C(=O)NC)[nH]1 (single isomer, unassigned)")
69
>>> measured("CNC(=O)c1[nH]c(C(=O)NC2CCC2)cc1OC(C)c1ccc(Cl)cc1 (single isomer, unassigned)")
47
>>> measured("CNC(=O)c1[nH]c(C(=O)NC2CCC2)cc1OC(C)c1ccccc1F (single isomer, unassigned)")
58
>>> measured("CNC(=O)c1[nH]c(C(=O)N[C@H]2CC[C@H](O)CC2)cc1OC(C)c1ccc(Cl)cc1F (single isomer, unassigned)")
66
>>> measured("CCNC(=O)c1cc(OC(C)c2ccc(Cl)cc2)c(C(=O)NC)[nH]1 (single isomer, unassigned)")
30
>>> measured("CNC(=O)c1[nH]c(C(=O)NC2CCC2)cc1OC(C)c1ccc(Cl)cc1F (single isomer, unassigned)")
65

---

# METHOD NOTES: Intrinsic clearance in liver microsomes, rat
# Type: in vitro ADME
# DETAILS: pH 7.4, rat liver microsomes 0.5 mg/mL, Method 1, read-out: Half-Life (T1/2) (min) Rat
OUTCOME MEASURE: half-life at 1 μM

>>> measured("CNC(=O)c1[nH]c(C(=O)N[C@H]2CC[C@H](O)CC2)cc1O[C@@H](C)c1ccccc1 (single isomer, unassigned) [Example 97]")
"> 60 min"

---

# METHOD NOTES: Sprague-Dawley rat pharmacokinetics (IV and PO)
# Assay type: in vivo
# DETAILS: rat, plasma; male Sprague-Dawley rats, PO 5 mg/kg (IV 1 mg/kg), cassette mode, Method 1; read-out: PO F (%)
OUTCOME MEASURE: bioavailability (%)

>>> measured("CNC(=O)c1[nH]c(C(=O)NC2CCC2)cc1OC(C)c1ccccc1 (single isomer, unassigned)")
13
>>> measured("CNC(=O)c1[nH]c(C(=O)NC2CCC2)cc1O[C@@H](C)c1ccccc1")
66
>>> measured("CNC(=O)c1[nH]c(C(=O)NC2CC2)cc1O[C@@H](C)c1ccc(Cl)cc1")
8
>>> measured("CNC(=O)c1[nH]c(C(=O)N[C@H]2CC[C@H](O)CC2)cc1OC(C)c1ccccc1 (single isomer, unassigned)")
31
>>> measured("CNC(=O)c1[nH]c(C(=O)N[C@H]2CC[C@H](O)CC2)cc1O[C@@H](C)c1ccccc1 (single isomer, unassigned)")
60
>>> measured("C#Cc1ccc(C(C)Oc2cc(C(=O)NCC)[nH]c2C(=O)NC)cc1 (single isomer, unassigned)")
44

---

# STUDY TARGET: BRD4 BD1 (Homo sapiens, UniProt O60885)
# Construct: HEK293 cells were transfected using NanoLuc-BRD4-BD1 or NanoLuc-BRD4-BD2 fusion vectors
# METHOD NOTES: NanoBRET bromodomain assay, NanoLuc-BRD4-BD1 fusion vector in HEK293 cells
# DETAILS: top concentration 10 μM
# Source text: Bromodomain Assay Procedure
OUTCOME MEASURE: IC50

>>> measured("CNC(=O)c1[nH]c(C(=O)NC2COC2)cc1OC(C)c1ccc(Cl)cc1 (single isomer, unassigned)")
"≥ 10 µM"
>>> measured("CNC(=O)c1[nH]c(C(=O)NC2CCC2)cc1OC(C)c1ccc(Cl)cc1 (single isomer, unassigned)")
"≥ 10 µM"
>>> measured("CNC(=O)c1[nH]c(C(=O)N[C@H]2CC[C@H](O)CC2)cc1O[C@@H](C)c1ccnnc1 (single isomer, unassigned)")
"≥ 10 µM"
>>> measured("CCNC(=O)c1cc(OC(C)c2c(C)cccc2C)c(C(=O)NC)[nH]1 (single isomer, unassigned)")
"≥ 10 µM"

---

Entries and their Plasma Stability (% remaining at 120 minutes) Rat values follow.
# METHOD NOTES: Plasma stability assay, rat plasma
# Format: in vitro ADME
# DETAILS: 37° C., Method 2 (10 μM)
OUTCOME MEASURE: Plasma Stability (% remaining at 120 minutes) Rat (%)

>>> measured("CNC(=O)c1[nH]c(C(=O)NC(C)C)cc1O[C@@H](C)c1ccc(Cl)cc1")
81
>>> measured("CNC(=O)c1[nH]c(C(=O)NC2CCC2)cc1OC(C)c1ccc(Cl)cc1 (single isomer, unassigned)")
47
>>> measured("CNC(=O)c1[nH]c(C(=O)NC2COC2)cc1OC(C)c1ccc(Cl)cc1 (single isomer, unassigned)")
81
>>> measured("CNC(=O)c1[nH]c(C(=O)N[C@H]2CC[C@H](O)CC2)cc1OC(C)c1ccccc1F (single isomer, unassigned)")
88

---

# STUDY TARGET: BRD4 BD2 (Homo sapiens, UniProt O60885)
# Construct: HEK293 cells were transfected using NanoLuc-BRD4-BD1 or NanoLuc-BRD4-BD2 fusion vectors; host or cells: HEK293
# METHOD NOTES: NanoBRET bromodomain assay, NanoLuc-BRD4-BD2 fusion vector in HEK293 cells
# Type: cell-based
# DETAILS: NanoBRET, HEK293 cells, top concentration 10 μM
Reported IC50 values for the following compounds.
OUTCOME MEASURE: IC50

>>> measured("CNC(=O)c1[nH]c(C(=O)N[C@@H]2CC[C@@H](O)C2)cc1O[C@@H](C)c1ccccc1 (racemic)")
"50 to 200 nM"
>>> measured("CNC(=O)c1[nH]c(C(=O)NC2COC2)cc1OC(C)c1ccc(Cl)cc1 (single isomer, unassigned)")
"50 to 200 nM"
>>> measured("CNC(=O)c1[nH]c(C(=O)NC2CCC(O)CC2)cc1OC(C)c1ccc(Cl)cc1 (single isomer, unassigned)")
"50 to 200 nM"
>>> measured("CCNC(=O)c1cc(OC(C)c2c(F)cccc2F)c(C(=O)NC)[nH]1 (single isomer, unassigned)")
"> 10000 nM"
>>> measured("CCNC(=O)c1[nH]c(C(=O)NC)c(O[C@@H](C)c2ccccc2F)c1C")
"1000 to 10000 nM"
>>> measured("CNC(=O)c1[nH]c(C(=O)N[C@H]2CC[C@H](O)CC2)cc1OC(C)c1ccccc1F (single isomer, unassigned)")
"50 to 200 nM"

---

# METHOD NOTES: Beagle dog PK study 1 (IV and PO, propylene glycol-based formulation)
# Format: in vivo
# DETAILS: beagle, dog, plasma, po, 5 mg/kg, PK study 1, PO 5 mg/kg, 1 h; read-out: Average plasma concentration, Mean
OUTCOME MEASURE: concentration at 1 h (ng/mL)

>>> measured("CNC(=O)c1[nH]c(C(=O)NC2CCC2)cc1O[C@@H](C)c1ccccc1")
1880
